The following compounds were reported with pIC50 values on Monoglyceride lipase (Mus musculus) in different studies.
# Study target: Monoglyceride lipase (Mus musculus)
# Sequence (O35678 whole entry): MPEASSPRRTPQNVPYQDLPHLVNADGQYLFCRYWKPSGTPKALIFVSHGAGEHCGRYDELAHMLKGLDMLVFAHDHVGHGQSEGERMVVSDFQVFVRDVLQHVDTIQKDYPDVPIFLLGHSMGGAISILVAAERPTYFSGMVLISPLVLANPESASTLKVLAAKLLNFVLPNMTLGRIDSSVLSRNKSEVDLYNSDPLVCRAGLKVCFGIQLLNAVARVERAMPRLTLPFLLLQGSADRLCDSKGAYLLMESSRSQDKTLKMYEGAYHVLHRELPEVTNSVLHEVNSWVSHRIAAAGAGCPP
pIC50: −log10 of the molar value.

{"Compound": "O=C(c1ccco1)N1CCN(C2CC(=O)N(c3cccc(N4CC[C@@H](F)C4)c3)C2)CC1 (stereo not given in full)", "Study target": "Monoglyceride lipase (Mus musculus)", "Comparative sign": "=", "pIC50": 5.53}
{"Compound": "O=C(OC(C(F)(F)F)C(F)(F)F)N1CCN(Cc2ccc(C(F)(F)F)cc2N2CCC3(CCOCC3)C2)CC1", "Study target": "Monoglyceride lipase (Mus musculus)", "Comparative sign": "=", "pIC50": 7.62}
{"Compound": "O=C1CC(N2CCN(c3ncccn3)CC2)CN1c1cccc(-c2ccc(F)nc2)c1 (stereo not given)", "Study target": "Monoglyceride lipase (Mus musculus)", "Comparative sign": "=", "pIC50": 5.68}
{"Compound": "O=C(c1ncc(-c2ccccn2)o1)[C@@H]1COc2cc(Oc3ccccc3)ccc2C1", "Study target": "Monoglyceride lipase (Mus musculus)", "Comparative sign": "<", "pIC50": 4.00}
{"Compound": "O=C(OC(C(F)(F)F)C(F)(F)F)N1CCN(Cc2ccc(C(F)(F)F)cc2N2CC[C@@H](O)C2)CC1", "Study target": "Monoglyceride lipase (Mus musculus)", "Comparative sign": "=", "pIC50": 8.10}
{"Compound": "COc1ccccc1-c1cccc(N2CC(N3CCN(c4ncccn4)CC3)CC2=O)c1 (stereo not given)", "Study target": "Monoglyceride lipase (Mus musculus)", "Comparative sign": "=", "pIC50": 7.07}
{"Compound": "COc1ccccc1-c1ccc(N2CC(N3CCN(C(=O)c4ccco4)CC3)CC2=O)cc1 (stereo not given)", "Study target": "Monoglyceride lipase (Mus musculus)", "Comparative sign": "=", "pIC50": 7.52}
{"Compound": "COc1cccc(-c2cccc(N3CC(N4CCN(c5ncccn5)CC4)CC3=O)c2)c1 (stereo not given)", "Study target": "Monoglyceride lipase (Mus musculus)", "Comparative sign": "=", "pIC50": 7.41}
{"Compound": "O=C(OC(C(F)(F)F)C(F)(F)F)N1CCN(Cc2ccc(Cl)cc2N2CCCCC2)CC1", "Study target": "Monoglyceride lipase (Mus musculus)", "Comparative sign": "=", "pIC50": 6.92}
{"Compound": "O=C(c1ccco1)N1CCN(C2CC(=O)N(c3ccc(-c4ccc(F)nc4)cc3)C2)CC1 (stereo not given)", "Study target": "Monoglyceride lipase (Mus musculus)", "Comparative sign": "=", "pIC50": 6.90}
{"Compound": "O=C(c1ccco1)N1CCN([C@@H]2CC(=O)N(c3ccc(-c4ccc(F)cc4)cc3)C2)CC1", "Study target": "Monoglyceride lipase (Mus musculus)", "Comparative sign": "=", "pIC50": 8.10}
{"Compound": "O=C(OC(C(F)(F)F)C(F)(F)F)N1CCN(Cc2ccc(C(F)(F)F)cc2N2CC[C@H](O)C2)CC1", "Study target": "Monoglyceride lipase (Mus musculus)", "Comparative sign": "=", "pIC50": 7.82}
{"Compound": "COc1cccc(-c2ccc(N3CC(N4CCN(C(=O)c5ccco5)CC4)CC3=O)cc2)c1 (stereo not given)", "Study target": "Monoglyceride lipase (Mus musculus)", "Comparative sign": "=", "pIC50": 8.05}
{"Compound": "O=C(c1ccco1)N1CCN(C2CC(=O)N(c3ccc(-c4ccc(F)cc4)cc3)C2)CC1 (stereo not given)", "Study target": "Monoglyceride lipase (Mus musculus)", "Comparative sign": "=", "pIC50": 7.89}
{"Compound": "O=C(OC(C(F)(F)F)C(F)(F)F)N1CCN(Cc2ccc(C(F)(F)F)cc2N2CC3COCC3C2)CC1 (stereo not given)", "Study target": "Monoglyceride lipase (Mus musculus)", "Comparative sign": "=", "pIC50": 7.77}
{"Compound": "O=C(c1ccco1)N1CCN(C2CC(=O)N(c3cccc(-c4cccc(F)c4)c3)C2)CC1 (stereo not given)", "Study target": "Monoglyceride lipase (Mus musculus)", "Comparative sign": "=", "pIC50": 7.39}
{"Compound": "CN1CC2CN(c3cc(C(F)(F)F)ccc3CN3CCN(C(=O)OC(C(F)(F)F)C(F)(F)F)CC3)CC2C1 (stereo not given)", "Study target": "Monoglyceride lipase (Mus musculus)", "Comparative sign": "=", "pIC50": 6.62}
{"Compound": "O=C(c1ncc(-c2ccccn2)o1)C1CCc2cc(Oc3ccccc3)ccc2O1 (single isomer, unassigned; enantiomer 2)", "Study target": "Monoglyceride lipase (Mus musculus)", "Comparative sign": "<", "pIC50": 4.00}
{"Compound": "O=C(OC(C(F)(F)F)C(F)(F)F)N1CCC2(CCCN2C(=O)c2cc3ccc(F)cc3s2)CC1", "Study target": "Monoglyceride lipase (Mus musculus)", "Comparative sign": ">", "pIC50": 7.00}
{"Compound": "COc1cccc2cc(CN3CCCC34CCN(C(=O)OC(C(F)(F)F)C(F)(F)F)CC4)[nH]c12", "Study target": "Monoglyceride lipase (Mus musculus)", "Comparative sign": ">", "pIC50": 7.00}
{"Compound": "Cc1c(CN2CCCC23CCN(C(=O)OC(C(F)(F)F)C(F)(F)F)CC3)[nH]c2ccc(Cl)cc12", "Study target": "Monoglyceride lipase (Mus musculus)", "Comparative sign": ">", "pIC50": 7.00}
{"Compound": "O=C(c1ccco1)N1CCN(C2CC(=O)N(c3ccc(-c4ccccc4F)cc3)C2)CC1 (stereo not given)", "Study target": "Monoglyceride lipase (Mus musculus)", "Comparative sign": "=", "pIC50": 7.43}
{"Compound": "COc1cccc(-c2cccc(N3CC(N4CCN(C(=O)c5ccco5)CC4)CC3=O)c2)c1 (stereo not given)", "Study target": "Monoglyceride lipase (Mus musculus)", "Comparative sign": "=", "pIC50": 7.82}
{"Compound": "C#Cc1ccc(CN2CCN(C(=O)OC(C(F)(F)F)C(F)(F)F)CC2)c(N2CCCC2)c1", "Study target": "Monoglyceride lipase (Mus musculus)", "Comparative sign": "=", "pIC50": 6.80}
{"Compound": "O=C1CC(N2CCN(c3ncccn3)CC2)CN1c1cccc(-c2cccnc2F)c1 (stereo not given)", "Study target": "Monoglyceride lipase (Mus musculus)", "Comparative sign": "=", "pIC50": 6.52}
